format: in vivo, human; details: human, plasma, oral, AUC0‐t, Group 2; Treatment B free combination (US‐sourced tadalafil); geometric mean (95% CI)
readout-kind: AUC (ng·h/mL)
Value expressed in ng·h/mL; do not type the unit.

Any idea what AUC was measured for CCCNS(=O)(=O)Nc1ncnc(OCCOc2ncc(Br)cn2)c1-c1ccc(Br)cc1 [Macitentan, macitentan] ?
4300

###

assay type: in vivo, human; settings: human, plasma, oral, tmax, Group 1; Treatment A FDC‐1; median (range)
readout-kind: Tmax (h)
Value expressed in h; do not type the unit.

Any idea what Tmax was measured for CCCNS(=O)(=O)Nc1ncnc(OCCOc2ncc(Br)cn2)c1-c1ccc(Br)cc1 [Macitentan, macitentan] ?
9

Any idea what Tmax was measured for NS(=O)(=O)Nc1ncnc(OCCOc2ncc(Br)cn2)c1-c1ccc(Br)cc1 [ACT‐132577] ?
48

Any idea what Tmax was measured for CN1CC(=O)N2[C@H](c3ccc4c(c3)OCO4)c3[nH]c4ccccc4c3C[C@@H]2C1=O [Tadalafil, tadalafil] ?
4
